- System: HFF
- assay-explanation: Antiviral activity against human CMV by dot blot assay in HFF cells
- Format: functional, cell-based
measured-parameter: IC50 (nM)

>>> val("Cc1nc(N(C)c2ccccc2)nc(-n2ccnc2C)c1[N+](=O)[O-]")
300
>>> val("Cc1nc(N2CCC(C)CC2)nc(-n2ccnc2C)c1[N+](=O)[O-]")
300
>>> val("CCCCN(C)c1nc(C)c([N+](=O)[O-])c(-n2ccnc2C)n1")
300
>>> val("CCOc1nc(C)c([N+](=O)[O-])c(-n2ccnc2C)n1")
670
>>> val("Cc1nc(NC2CCc3ccccc32)nc(-n2ccnc2C)c1[N+](=O)[O-] (stereo unspecified)")
53
>>> val("Cc1nc(N(C)Cc2ccccc2)nc(-n2ccnc2C)c1[N+](=O)[O-]")
61
